Test system: K4 kissing-loop RNA reporter;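 note: bound reporter read as fluorescence of individual clusters on recovered sequencing chips by microscopy, with normalized cluster intensities fitted with a binding model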
test_method_notes: apparent KD of K4 kissing-loop reporter; higher = weaker reporter binding
experimental_parameters: Eterna round: R107; input ligand: arginine 13.2 mM
measured_quantity: apparent KD of K4 kissing-loop reporter (µM)
The reply should contain only the number, in µM.

AAACAAGAUGCAGGAUAUACGGACCCAGUGAUGUUGGGUAGAAUUGUCCCGGCAAUCCUUGUGGCAGUAGAAGGGCAAUAAAAGA [Gexeraora]; 0.134
UGUACCGAGUCAGGAUAUGGCGUCGAAAGACGAAACCAGUGAUGUUGGAAAAUCUGCGAAAGCAGUCCAGAAGGGACUUGGUACU [FmnBS 24 #SwitchBubble #StaticStem #DoubleMagnetSystem]; 0.236

Now look at this one.
The reported K4 kissing-loop RNA reporter apparent KD of K4 kissing-loop reporter of UUGCAUGCUAGGGAAACCUAGCAUGCAUGCCGAGGACCGGUACGGCCGCCACUCGAACGAGUGAUGUUCGUUGACCAAAAUAAAA is 0.468
